- System: A498 renal
- methodNotes: NCI tumour cell line growth inhibition, 48 h
measuredQuantity: TGI (µM)
Numbers only, in µM.

Examples from the recorded data:
COc1ccccc1NS(=O)(=O)c1ccc2oc(SC(C)C)nc2c1 :: 61.7
COC(=O)[C@@H]1CC(C(CN)c2cn(C(=O)OC(C)(C)C)c3ccccc23)C(=O)N1C(=O)OC(C)(C)C (stereo not given in full) :: 37.3
COc1ccc(C(CC(=O)c2ccccc2)C(C(=O)c2ccccc2)C(c2ccc(OC)cc2)C2C(=O)NC(=S)NC2=O)cc1 (stereo not given) :: 23.2

Turning now to a further record.
## Input Look at this compound and give its reported TGI. CCN(CC)CCn1[nH]c2c3ccc(=O)cc3sc3c(NCCN)ccc1c32
## Output 3.32

====

- Tested on: DU-145 prostate
- methodNotes: NCI tumour cell line growth inhibition, 48 h; in the data active = GI50 below about 0.43 µM; inactive = the rest
Result category, one only: active, inactive

See these solved cases before continuing.
C[C@@H]1COCCN1c1cc(C2([S@@](C)(=N)=O)CC2)nc(-c2ccnc3[nH]ccc23)n1 :: inactive
ClCc1cccc(CSc2ncnc3c2ncn3Cc2cccc(CCl)c2)c1 :: inactive
COc1ccc(N(/C=C/C(=O)C(F)(F)F)CC(=O)c2ccc(Cl)cc2)cc1 :: inactive
NC(=Nc1ccc(N)cc1)C(N)=Nc1ccc(N)cc1 :: inactive
COc1cc(NCCN=C(N)NC(N)=NC(C)C)c2ncccc2c1 :: inactive

## Input Look up the recorded call for CCOC(=O)c1cnn2c3ccccc3n(S(=O)(=O)c3ccc(OC)cc3)c12 in this test.
## Output active

## Input Name the outcome recorded for COc1cc2c(=O)n(CCN(C)C)c3c4cc5c(cc4ccc3c2cc1OC)OCO5 in the assay.
## Output active

## Input Which outcome was entered for the molecule O=C(NCc1ccco1)c1cccc(NC2=C(Cl)C(=O)N(Cc3ccccc3)C2=O)c1 in this test?
## Output inactive

## Input // param item: CC1=C[C@H]2C[C@H](C)[C@H]3CC[C@H](C)[C@]4(C1)C(=O)C(O)=C(C)C(=O)[C@@]324 ; yields the recorded call
## Output inactive

## Input I'd appreciate the recorded outcome for O=C(c1ccccc1)n1c(-c2ccccc2)cs/c1=N\S(=O)(=O)c1ccc(N2N=C3c4ccccc4CC3C2c2cccs2)cc1 (stereo unspecified) from this test.
## Output inactive

## Input I'd appreciate the recorded outcome for O=S(=O)(Nc1ccc(F)c(Cl)c1)c1ccc(-c2cnc(C3CC3)o2)cc1 from this test.
## Output inactive

====

- Tested on: SF-539 CNS
- methodNotes: NCI tumour cell line growth inhibition, 48 h; in the data active means GI50 below about 0.43 µM; inactive means the rest
API: response.call in 1.0 (active), 0.0 (inactive)

## Input Just curious, what result did O=C(N/N=C/c1cc(Cl)cc(Cl)c1[O-])c1ccccc1.O=C(N/N=C/c1cc(Cl)cc(Cl)c1[O-])c1ccccc1.[Co+2] get here?
## Output 0.0

## Input Record lookup: outcome of this test for O=C(CC(=O)c1cccc(Cl)c1)c1cccc(Cl)c1 ?
## Output 0.0

## Input Per the records of this test, what outcome belongs to O=C(C[P+](c1ccccc1)(c1ccccc1)c1ccccc1)C[P+](c1ccccc1)(c1ccccc1)c1ccccc1 ?
## Output 1.0

====

Provide the reported TGI of each item.
- System: MCF7 breast
- methodNotes: NCI tumour cell line growth inhibition, 48 h

Some compounds with recorded TGI:
COc1ccc2c3c([nH]c2c1)CCN(Cc1ccccc1)C3 :: 33.8 µM
COC(=O)/C=C(\S/C=C(/c1ccccc1)N1CCn2c(C(=O)c3ccccc3)c(C(=O)OC)c(C(=O)OC)c21)C(=O)OC :: 4.33 µM
CCn1c(=O)c2nc(SC)sc2n(-c2ccccc2)c1=O :: > 100 µM
O=S(=O)(O)Oc1cc2c(c(OS(=O)(=O)O)c1)C[C@H](OS(=O)(=O)O)[C@@H](c1ccc(OS(=O)(=O)O)c(OS(=O)(=O)O)c1)O2 :: > 100 µM
CNS(=O)(=O)OCC1OC(n2cnc3c(N)ncnc32)C(O)C1O (stereo not given) :: > 100 µM

Each of the following entries comes with a recorded value; kindly state TGI for each.
1. CCN(CC)CCCNc1[nH]ncc2c(C)c3nc4ccc(OC)cc4c3cc12
2. O=C(Nc1sccc1S(=O)(=O)c1ccccc1)c1ccccc1
3. COc1ccc(N2C(=O)C3c4[nH]c5ccc(F)cc5c4C4CCC(C(C)(C)C)CC4C3C2=O)cc1 (stereo not given)
4. Cc1c(N2C(=O)/C(=C/c3ccc(N(CCC#N)CCC#N)cc3)N=C2c2ccccc2)c(=O)n(-c2ccccc2)n1C
5. Cc1ccc(-c2nc([P+](c3ccccc3)(c3ccccc3)c3ccccc3)c(Nc3ccccc3)o2)cc1

## Output
1.28 µM
> 100 µM
> 10 µM
> 100 µM
1.43 µM

====

- Tested on: SK-MEL-5 melanoma
- methodNotes: NCI tumour cell line growth inhibition, 48 h
measuredQuantity: TGI

In the examples that follow, each entry is paired with its recorded TGI.
CCOc1ccc(O)cc1[P+](c1ccccc1)(c1ccccc1)c1ccccc1 :: 4.7 µM
Cc1cnc(Nc2ccc(N3CCN(C)CC3)cc2)nc1Nc1ccc(Cl)c(NS(=O)(=O)C(C)(C)C)c1 :: 1.51 µM
Cc1cc(=O)[nH]c(CNC(=O)c2cccc(C(=O)NCc3cc(=O)[nH]c(C)n3)c2)n1 :: > 100 µM
Cc1cccc(C)c1Nc1nc(C)c(C(=O)CC(=O)C(=O)Nc2c(C(C)C)cccc2C(C)C)s1 :: > 100 µM
Clc1ccccc1C(Nc1ncccn1)Nc1ncccn1 :: > 100 µM
CN1C(=O)CC2CCC(=O)N2c2cccnc21 (centres undefined) :: > 100 µM
CSCCCNC(=O)c1csc(-c2csc(CCNC(=O)CNC(=O)CNC(=O)OC(C)(C)C)n2)n1 :: > 100 µM
O=S(=O)(O)Oc1cc2c(c(OS(=O)(=O)O)c1)C[C@H](OS(=O)(=O)O)[C@@H](c1ccc(OS(=O)(=O)O)c(OS(=O)(=O)O)c1)O2 :: > 100 µM
CC(CN(C)C)C(=O)c1ccccc1 (centres undefined) :: > 100 µM
Cn1c(=S)c2[nH]c(SCCN3C(=O)c4ccccc4C3=O)nc2n(C)c1=O :: > 100 µM

For each of the compounds below, note its TGI.
1. CCn1c2ccccc2c2ccc(C3C(C(=O)OC)=C(C)NC(C)=C3C(=O)OC)cc21
2. NC1Cc2ccccc2OC1=O (centres undefined)
3. COc1ccc(/C=C\c2cc(OC)c(OC)c(OC)c2)cc1OCC(=O)Nc1ccc2nc(C)sc2c1
4. CCCN1C(=O)/C(=C\c2ccc(OC)c(OC)c2)SC1=Nc1ccccc1
5. N#Cc1c(N)nc(NCc2ccccc2)c(C#N)c1-c1ccc(Cl)cc1Cl
6. CC(C)(C)OC(=O)CN1CCN(CC(=O)N2CCN(C(=O)OCc3ccccc3)CC2)CCN(CC(=O)OC(C)(C)C)CCN(CC(=O)N2CCN(C(=O)OCc3ccccc3)CC2)CC1
7. C[C@@H]1COCCN1c1cc(C2([S@@](C)(=N)=O)CC2)nc(-c2ccnc3[nH]ccc23)n1

## Output
1: > 100 µM; 2: > 100 µM; 3: 5.14 µM; 4: > 100 µM; 5: > 100 µM; 6: 3.92 µM; 7: 26.4 µM

Below is a list of compounds. For each, state its recorded TGI.
1. COC1C2c3cc4c(cc3CC(C#N)(c3ccccc32)N1C(=O)c1ccccc1)OCO4 (centres undefined)
2. CC1C2=C(CCCC2=O)N(c2ccc(Cl)cc2)C2=C1C(=O)CCC2

## Output
1: > 100 µM; 2: > 100 µM

====

- Tested on: UO-31 renal
- methodNotes: NCI tumour cell line growth inhibition, 48 h; in the data active = GI50 below about 0.43 µM; inactive = the rest
The reply should be one of these categories: active, inactive

COc1cccc(/C(C)=N/NC(=O)CSc2nc3ccccc3c(=O)n2CCc2ccc(S(N)(=O)=O)cc2)c1 :: inactive
O=C(CC(=O)c1cccc(Cl)c1)c1cccc(Cl)c1 :: inactive
Cc1c(C(N)=O)sc2c1c(=O)n(Cc1ccccc1)c1nnc(-c3ccc(Br)cc3)n21 :: inactive
NC(=Nc1ccc(N)cc1)C(N)=Nc1ccc(N)cc1 :: inactive
COc1cc(-n2ccnc2)cc(OC)c1OC :: inactive

Proceed to the following item.
## Input What did this assay record as the result for C=C1C(=O)O[C@H]2[C@H]1CC/C(COC(=O)NCCc1c[nH]c3ccc(Cl)cc13)=C\CC[C@@]1(C)O[C@@H]21 ?
## Output inactive

====

Please respond with reported TGI for every item in the list.
- Test system: NCI-H460 lung
- methodNotes: NCI tumour cell line growth inhibition, 48 h

In the examples that follow, each entry is paired with its recorded TGI.
CC(C)(C)OC(=O)Cn1ncn(NC(=O)Cc2ccccc2)c1=O :: > 10 µM
CN1CCN(Cc2ccc3c(NNC(=O)c4ccccc4)nc4cc(F)ccc4n23)CC1 :: 11 µM
Cc1ccc(C)c(NC(=O)CC2SC(=Nc3ccccc3Cl)NC2=O)c1 (stereo not given) :: > 100 µM
C=CCOc1ccccc1C1(O)c2ccccc2C2=NCCCN21 (stereo not given) :: > 100 µM

Read the next record carefully.
## Input Need TGI of CC[N+](C)(CC)CC(C)(C)C(=O)/C=C/c1ccc(/C=C/C(=O)C(C)(C)C[N+](C)(CC)CC)cc1 , thanks.
## Output > 100 µM
